Target: UniProt Q12809
Sequence (Q12809 whole entry): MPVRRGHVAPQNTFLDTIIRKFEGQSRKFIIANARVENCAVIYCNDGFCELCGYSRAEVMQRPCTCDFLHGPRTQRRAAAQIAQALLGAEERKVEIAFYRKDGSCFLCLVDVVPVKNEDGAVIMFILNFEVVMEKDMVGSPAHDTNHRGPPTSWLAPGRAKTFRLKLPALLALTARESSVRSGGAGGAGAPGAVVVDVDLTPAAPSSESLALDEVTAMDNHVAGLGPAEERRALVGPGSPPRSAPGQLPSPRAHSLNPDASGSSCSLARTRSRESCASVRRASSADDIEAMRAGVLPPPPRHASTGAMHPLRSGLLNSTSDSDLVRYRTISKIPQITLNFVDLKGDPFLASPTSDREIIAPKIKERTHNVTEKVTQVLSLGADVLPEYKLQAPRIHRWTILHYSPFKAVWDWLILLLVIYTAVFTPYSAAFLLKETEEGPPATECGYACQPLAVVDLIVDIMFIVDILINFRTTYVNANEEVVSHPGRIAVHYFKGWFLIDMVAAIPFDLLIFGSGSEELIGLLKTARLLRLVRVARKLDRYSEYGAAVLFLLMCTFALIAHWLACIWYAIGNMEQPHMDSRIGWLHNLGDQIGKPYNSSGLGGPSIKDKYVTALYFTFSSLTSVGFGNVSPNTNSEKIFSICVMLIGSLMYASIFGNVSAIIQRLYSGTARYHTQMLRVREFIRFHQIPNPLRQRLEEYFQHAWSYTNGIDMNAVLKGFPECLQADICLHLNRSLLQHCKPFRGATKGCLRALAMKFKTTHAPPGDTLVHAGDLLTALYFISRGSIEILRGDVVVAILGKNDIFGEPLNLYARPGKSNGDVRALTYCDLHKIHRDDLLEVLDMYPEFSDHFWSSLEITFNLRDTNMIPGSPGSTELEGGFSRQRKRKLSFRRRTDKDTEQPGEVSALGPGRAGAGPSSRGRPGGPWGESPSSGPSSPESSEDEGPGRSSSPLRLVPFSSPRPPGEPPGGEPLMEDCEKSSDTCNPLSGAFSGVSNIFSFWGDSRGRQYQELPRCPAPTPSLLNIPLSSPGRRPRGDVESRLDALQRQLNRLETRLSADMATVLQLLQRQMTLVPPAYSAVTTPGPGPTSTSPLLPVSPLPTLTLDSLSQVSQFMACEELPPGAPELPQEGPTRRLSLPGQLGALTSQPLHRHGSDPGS
pIC50: −log10 of the molar value.
Assign class 1 whenever pIC50 does not fall below 5; assign class 0 whenever it does.

Please review the following examples before continuing.
Prompt: Entry O=C(CNc1noc2ccc(C(F)(F)F)cc12)NC1CN([C@H]2CC[C@@H](c3ccc4c(c3)OCO4)CC2)C1 : is its pIC50 no less than 5?
Response: class 1

Prompt: Record CCOC[C@H]1CC[C@@H](N2CC(NC(=O)CNc3nn(C)c4ccc(C(F)(F)F)cc34)C2)CC1 ; criterion: pIC50 no lower than 5. Met?
Response: class 1

Prompt: Is pIC50 at least 5? Consider CC(C)[C@H]1CC[C@@H](N2CC(NC(=O)CNc3n[nH]c4ccc(C(F)(F)F)cc34)C2)CC1
Response: class 1

Prompt: Exam item: decide whether the reported pIC50 for Cc1ccc([C@H]2CC[C@@H](N3CC(NC(=O)CNc4n[nH]c5ccc(C(F)(F)F)cc45)C3)CC2)cn1 is at least 5.
Response: class 0

Prompt: Decide: is the reported value of pIC50 for COc1ccc([C@]2(O)CC[C@H](N3CC(NC(=O)CNc4n[nH]c5ccc(C(F)(F)F)cc45)C3)CC2)cn1 equal to or greater than 5?
Response: class 0

Further cases:
Prompt: hey, is pIC50 for this one >= 5? Cn1nc(NCC(=O)NC2CN([C@H]3CC[C@@H](C(=O)O)CC3)C2)c2cc(C(F)(F)F)ccc21
Response: class 0

Prompt: Check this molecule for pIC50 at or above 5: CCOC(=O)[C@H]1CC[C@@H](N2CC(NC(=O)CNc3nn(S(C)(=O)=O)c4ccc(C(F)(F)F)cc34)C2)CC1
Response: class 0

Prompt: Identify whether the reported pIC50 of the following molecule is 5 or greater: CCOC(=O)[C@H]1CC[C@@H](N2CC(NC(=O)CNc3nn(C(N)=O)c4ccc(C(F)(F)F)cc34)C2)CC1
Response: class 0

Prompt: Hi, just wondering whether O=C(CNc1n[nH]c2ccc(C(F)(F)F)cc12)NC1CN([C@H]2CC[C@@H](O)CC2)C1 shows pIC50 of 5 or higher.
Response: class 0

Prompt: Is the recorded value of pIC50 equal to or greater than 5 for this molecule? C#C[C@H]1CC[C@@H](N2CC(NC(=O)CNc3nn(C)c4ccc(C(F)(F)F)cc34)C2)CC1
Response: class 0

Prompt: Determine whether this molecule has pIC50 no lower than 5: O=C(CNc1n[nH]c2ccc(C(F)(F)F)cc12)NC1CN([C@H]2CC[C@@H](c3ccccc3)CC2)C1 (stereo in doubt; 13a)
Response: class 1

Prompt: Tell me whether pIC50 is at least 5 here: CCOC(=O)[C@H]1CC[C@@H](N2CC(NC(=O)CNc3nn(CC(F)(F)F)c4ccc(C(F)(F)F)cc34)C2)CC1
Response: class 1

Prompt: Is pIC50 at least 5? Consider Cn1nc(NCC(=O)NC2CN([C@H]3CC[C@@H](C(N)=O)CC3)C2)c2cc(C(F)(F)F)ccc21
Response: class 0

Prompt: Is it the case that CCOC(=O)[C@H]1CC[C@@H](N2CC(NC(=O)CNc3nn(C4CCCC4)c4ccc(C(F)(F)F)cc34)C2)CC1 has pIC50 reaching or exceeding 5?
Response: class 1

Prompt: Answer whether pIC50 of N[C@H]1CC[C@@H](N2CC(NC(=O)CNc3n[nH]c4ccc(C(F)(F)F)cc34)C2)CC1 is greater than or equal to 5.
Response: class 0
